Just for reference, the supplement of paper PMC6522484 is where these values come from.

A collection of molecules and their measured cell viability
- Test system: SW480
- assay info: cell viability (CellTiter-Glo) relative to plate median (fraction of plate median); higher = more viable cells
- recorded conditions: 5 µM; treatment time 24 h; reporter: 7TFP
// no unit string in output, number only

[[record]]
molecule = "CN1[C@@H]2C[C@@H](OC(=O)[C@H](CO)c3ccccc3)C[C@H]1[C@@H]1O[C@@H]12"
metric = "cell viability"
recorded_measurement = 0.99

[[record]]
molecule = "CN1[C@@H]2CC[C@H]1C[C@@H](OC(=O)C(CO)c1ccccc1)C2 (some centres undefined)"
metric = "cell viability"
recorded_measurement = 0.994

[[record]]
molecule = "CC1C=CC=CCCC=CC=CC=CC=CC(OC2OC(C)C(O)C(N)C2O)CC2OC(O)(CC(O)C(O)CCC(O)CC(O)CC(O)CC(=O)OC(C)C(C)C1O)CC(O)C2C(=O)O (centres undefined)"
metric = "cell viability"
recorded_measurement = 0.973


**Query** Quickly give me recorded cell viability for c1ccc2c(c1)[nH]c1cnccc12
**Result** 0.972

**Query** Quickly give me recorded cell viability for CN1C[C@H](C(=O)N[C@]2(C)O[C@@]3(O)[C@@H]4CCCN4C(=O)[C@H](Cc4ccccc4)N3C2=O)C[C@@H]2c3cccc4[nH]cc(c34)C[C@H]21
**Result** 1

**Query** Quickly give me recorded cell viability for NCCc1c[nH]c2ccccc12
**Result** 0.952

**Query** Quickly give me recorded cell viability for COc1cc2c(cc1OC)[C@@H]1C(=O)c3ccc4oc(C(C)C)cc4c3O[C@@H]1CO2
**Result** 0.75

**Query** Quickly give me recorded cell viability for CC(=O)O[C@@H]1CC2C(C)(C)[C@H](O)C=C[C@]2(C)C2CC[C@]3(C)C(=CC(=O)O[C@H]3c3ccoc3)[C@@]21C (stereo partly drawn) [3-alpha-HYDROXYDEOXYGEDININ]
**Result** 1.08

**Query** Quickly give me recorded cell viability for CCCCCCCCCCCCCCCC[n+]1ccccc1
**Result** 0.95

----------
- System: SW480
- assay info: cell viability (CellTiter-Glo) relative to plate median (fraction of plate median); higher = more viable cells
- recorded conditions: 5 µM; treatment time 24 h; reporter: 7TFP
metric: cell viability
// no unit string in output, number only

[[record]]
compound = "COc1ccc2c(c1)[C@]13CCCC[C@@H]1[C@H](C2)N(C)CC3"
recorded_measurement = 1.02

[[record]]
compound = "COc1cc([C@@H]2c3cc4c(cc3[C@@H](O)[C@H]3COC(=O)[C@H]23)OCO4)cc(OC)c1O"
recorded_measurement = 1.06

[[record]]
compound = "C[C@]12CC[C@H](Cl)C[C@@H]1CC[C@@H]1[C@@H]2CC[C@]2(C)C(=O)CC[C@@H]12"
recorded_measurement = 1.06

[[record]]
compound = "CCCCCCCCC(=O)NCc1ccc(O)c(OC)c1"
recorded_measurement = 0.981

[[record]]
compound = "CC1(C)C(=O)[C@@H]2O[C@@H]2[C@@]2(C)C1C[C@@H](O)[C@]1(C)C2CC[C@@]2(C)[C@H](c3ccoc3)OC(=O)C3OC321 (stereo partly drawn) [1,2alpha-EPOXYDEACETOXYDIHYDROGEDUNIN]"
recorded_measurement = 1.01


Please look at the following compound next.
**Query** Quickly give me recorded cell viability for N#Cc1c(Cl)c(Cl)c(Cl)c(C#N)c1Cl
**Result** 1.01

----------
- Test system: SW480
- assay info: TCF/Wnt firefly luciferase reporter signal relative to plate median (fraction of plate median); higher = higher Wnt reporter signal
- recorded conditions: 5 µM; treatment time 24 h; reporter: 7TFP
// label = 1 if TCF/Wnt firefly luciferase reporter signal is not less than 1, otherwise -1

Some solved entries appear below for comparison.
[[record]]
compound = "CC[C@@]1(O)C[C@H](O[C@H]2C[C@H](N(C)C)[C@H](O[C@H]3C[C@@H]4O[C@H]5CC(=O)[C@H](C)O[C@H]5O[C@@H]4[C@H](C)O3)[C@H](C)O2)c2c(cc3c(c2O)C(=O)c2c(O)ccc(O)c2C3=O)[C@H]1C(=O)OC"
experimental_target = "SW480"
group = 1

[[record]]
compound = "CC1=C2C(=CO[C@H](C)[C@H]2C)C(O)=C(C(=O)O)C1=O"
experimental_target = "SW480"
group = -1

[[record]]
compound = "COC1=C[C@]23CCCN2CCc2cc4c(cc2[C@@H]3[C@@H]1O)OCO4"
experimental_target = "SW480"
group = -1

[[record]]
compound = "CCCC(C)C1(CC)C(=O)NC(=O)NC1=O (stereo not drawn)"
experimental_target = "SW480"
group = -1

[[record]]
compound = "CC(C)=CCC[C@]1(C)C=Cc2c(O)c3c(c(CC=C(C)C)c2O1)O[C@]12C(=C[C@@H]4C[C@H]1C(C)(C)O[C@@]2(C/C=C(/C)C(=O)O)C4=O)C3=O"
experimental_target = "SW480"
group = 1


**Query** // inclusive: TCF/Wnt firefly luciferase reporter signal at least 1? input: N#Cc1c(Cl)c(Cl)c(Cl)c(C#N)c1Cl
**Result** -1

**Query** // inclusive: TCF/Wnt firefly luciferase reporter signal at least 1? input: C[C@@H]1C(=O)O[C@H]2[C@H]1CC[C@@]1(C)C=CC(=O)[C@@]3(C)O[C@@]213 [EPOXY (4,5alpha)-4,5-DIHYDROSANTONIN]
**Result** -1

**Query** // inclusive: TCF/Wnt firefly luciferase reporter signal at least 1? input: CC(=O)O[C@H]1[C@H]2[C@@H](OC(=O)Cc3ccccc3)[C@@H](C)C[C@]2(OC(C)=O)C(=O)/C(C)=C/[C@@H]2[C@H](CC[C@@]13CO3)C2(C)C
**Result** 1

**Query** // inclusive: TCF/Wnt firefly luciferase reporter signal at least 1? input: CC(C)(O)[C@@H]1[C@H]2OC(=O)[C@@H]1[C@]1(O)C[C@H]3O[C@]34C(=O)O[C@H]2[C@]14C
**Result** 1

**Query** // inclusive: TCF/Wnt firefly luciferase reporter signal at least 1? input: CN[C@@H]1C[C@H]2O[C@@](C)([C@@H]1OC)n1c3ccccc3c3c4c(c5c6ccccc6n2c5c31)C(=O)NC4
**Result** -1

**Query** // inclusive: TCF/Wnt firefly luciferase reporter signal at least 1? input: C=C[C@H]1CN2CC[C@H]1C[C@@H]2[C@@H](O)c1ccnc2ccccc12
**Result** -1

----------
- Test system: DLD1
- assay info: cell viability (CellTiter-Glo) relative to plate median (fraction of plate median); higher = more viable cells
- recorded conditions: 5 µM; treatment time 24 h; reporter: 7TFP
A collection of molecules and their measured cell viability
// no unit string in output, number only

[[record]]
compound_structure_string = "O=C1CC[C@@]2(O)[C@H]3Cc4ccc(O)c5c4[C@@]2(CCN3CC2CC2)[C@H]1O5"
metric = "cell viability"
recorded_measurement = 1.02

[[record]]
compound_structure_string = "CC(=O)Oc1ccc(/C=C/c2cc(OC(C)=O)cc(OC(C)=O)c2)cc1"
metric = "cell viability"
recorded_measurement = 1.05

[[record]]
compound_structure_string = "O=C(O)c1cccc2nc3ccccc3nc12"
metric = "cell viability"
recorded_measurement = 1.12


**Query** Quickly give me recorded cell viability for C[C@@H]1O[C@@H](O[C@H]2CC[C@]3(C=O)[C@H]4CC[C@]5(C)[C@@H](C6=CC(=O)OC6)CC[C@]5(O)[C@@H]4CC[C@]3(O)C2)[C@H](O)[C@H](O)[C@H]1O
**Result** 0.885

**Query** Quickly give me recorded cell viability for CC[C@@]1(O)C[C@H](O[C@H]2C[C@H](N(C)C)[C@H](O[C@H]3C[C@@H]4O[C@H]5CC(=O)[C@H](C)O[C@H]5O[C@@H]4[C@H](C)O3)[C@H](C)O2)c2c(cc3c(c2O)C(=O)c2c(O)ccc(O)c2C3=O)[C@H]1C(=O)OC
**Result** 1.04

**Query** Quickly give me recorded cell viability for CCCCCCCCC(=O)NCc1ccc(O)c(OC)c1
**Result** 1.04

**Query** Quickly give me recorded cell viability for CC(=O)O[C@H]1C[C@@H]2CC[C@@H]3[C@H](CC[C@@]4(C)[C@H]3C[C@H]([N+]3(C)CCCCC3)[C@@H]4OC(C)=O)[C@@]2(C)C[C@@H]1[N+]1(C)CCCCC1
**Result** 0.987

**Query** Quickly give me recorded cell viability for S=C=NCc1ccccc1
**Result** 0.961

----------
- Test system: DLD1
- assay info: cell viability (CellTiter-Glo) relative to plate median (fraction of plate median); higher = more viable cells
- recorded conditions: 5 µM; treatment time 24 h; reporter: 7TFP
A collection of compounds and their measured cell viability
// no unit string in output, number only

[[record]]
compound = "COc1ccc(C(=O)N2CCCC2=O)cc1"
experimental_target = "DLD1"
recorded_measurement = 1.01

[[record]]
compound = "CCOC(=O)C1C(C=C(C)C)C1(C)C (centres undefined)"
experimental_target = "DLD1"
recorded_measurement = 0.913

[[record]]
compound = "O=C1C=CC(=O)c2ccccc21"
experimental_target = "DLD1"
recorded_measurement = 0.997

[[record]]
compound = "NCC(CC(=O)O)c1ccc(Cl)cc1 (centres undefined)"
experimental_target = "DLD1"
recorded_measurement = 0.998

[[record]]
compound = "CC(=O)OCC1=C(C(=O)O)N2C(=O)[C@@H](NC(=O)CCC[C@@H](N)C(=O)O)[C@H]2SC1"
experimental_target = "DLD1"
recorded_measurement = 0.955


**Query** Quickly give me recorded cell viability for CC1=CCCC2C1(C)CCC(C)C2(C)CC/C(C)=C/Cn1c[n+](C)c2c(N)ncnc21 (centres undefined) [AGELASINE (stereochemistry of diterpene unknown)]
**Result** 1.02

**Query** Quickly give me recorded cell viability for O[C@@H]1C[C@H]2CCC[C@@H](C1)N2Cc1ccccc1
**Result** 0.931

**Query** Quickly give me recorded cell viability for CCC12C=CCN3CC[C@@]4(c5ccc(OC)cc5N(C)[C@H]4[C@@](O)(C(=O)OC)[C@@H]1OC(C)=O)[C@@H]32 (some centres undefined)
**Result** 0.975

**Query** Quickly give me recorded cell viability for COC[C@]12CN(C=O)[C@@H]3[C@@H]4[C@H](OC)[C@H]1[C@@]3([C@@H](OC)C[C@H]2O)[C@@H]1C[C@@]2(O)[C@H](OC(=O)c3ccccc3)[C@@H]1[C@]4(OC(C)=O)[C@@H](O)[C@@H]2OC
**Result** 1.01
